Target: Af-OMO (ornithine monooxygenase, SidA) (Aspergillus fumigatus, UniProt E9QYP0)
Sequence (E9QYP0 whole entry): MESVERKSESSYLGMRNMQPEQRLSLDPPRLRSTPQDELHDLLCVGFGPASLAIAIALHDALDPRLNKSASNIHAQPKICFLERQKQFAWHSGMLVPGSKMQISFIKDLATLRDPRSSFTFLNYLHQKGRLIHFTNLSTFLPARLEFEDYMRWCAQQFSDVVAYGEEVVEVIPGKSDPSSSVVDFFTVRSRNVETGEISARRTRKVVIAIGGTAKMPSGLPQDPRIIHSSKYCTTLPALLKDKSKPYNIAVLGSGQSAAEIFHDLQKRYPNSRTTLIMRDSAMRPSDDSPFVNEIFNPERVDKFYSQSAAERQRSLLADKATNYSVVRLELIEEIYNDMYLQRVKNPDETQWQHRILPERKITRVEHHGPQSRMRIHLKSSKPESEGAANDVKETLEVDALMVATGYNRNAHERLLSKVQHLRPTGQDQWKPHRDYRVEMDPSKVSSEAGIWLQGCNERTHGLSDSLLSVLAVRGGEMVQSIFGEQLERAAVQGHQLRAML
Assay: stopped-flow UV/vis, concentration dependence of kobs for FAD-OOH formation
Type: biochemical
measured-parameter: Kd

compound="N=C(N)NCCC[C@H](N)C(=O)O [L-Arg, L-arginine]" system_tested="Af-OMO (ornithine monooxygenase, SidA) (Aspergillus fumigatus, UniProt E9QYP0)" value_reported="620 µM"

====

Target: UniProtKB E9QYP0
Test: stopped-flow UV/vis, concentration dependence of kobs
Type: biochemical
measured-parameter: Kd

smiles_code=NCCC[C@H](N)C(=O)O value_reported="310 µM"

====

Target: Af-OMO (ornithine monooxygenase, SidA) (Aspergillus fumigatus)
Experiment: stopped-flow UV/vis, concentration dependence of kobs
Type: biochemical
measured-parameter: Kd (µM)

molecule="NCCCC[C@H](N)C(=O)O [L-Lys, L-lysine]" unit_descriptor=µM value_reported=130

====

Biological target: Af-OMO (ornithine monooxygenase, SidA) (Aspergillus fumigatus)
Assay: stopped-flow UV/vis, concentration dependence of kobs for FAD-OOH formation
Assay type: biochemical
measured-parameter: Kd (mM)

molecule="NC(=O)NCCC[C@H](N)C(=O)O [L-Citr, L-citrulline]" system_tested="Af-OMO (ornithine monooxygenase, SidA) (Aspergillus fumigatus)" measured_parameter=Kd value_reported=4.4

Cited source: paper PMC3391563
